- Test system: Escherichia coli
- protocol summary: Antibacterial activity against Escherichia coli NCIM 2574 after 24 hrs by NCCLS method
- Format: functional
- settings: NCIM 2574, 24 h
Each item that follows carries a reported MIC90.

- compound: "CC(=O)O[C@H]1CC[C@@]2(C)C(=CC[C@H]3[C@@H]4CC[C@H]([C@@](C)(O)c5nccs5)[C@@]4(C)CC[C@@H]32)C1"
  display unit: "µg/mL"
  MIC90: 8
- compound: "CC(C)(C)[Si](C)(C)O[C@H]1CC[C@@]2(C)C(=CC[C@H]3[C@@H]4CC[C@H]([C@@](C)(O)c5nccs5)[C@@]4(C)CC[C@@H]32)C1"
  display unit: "µg/mL"
  MIC90: 8
- compound: "CN(C)[C@@H]1C(O)=C(C(N)=O)C(=O)[C@@]2(O)C(O)=C3C(=O)c4c(O)cccc4[C@@](C)(O)[C@H]3C[C@@H]12 [TETRACYCLINE]"
  display unit: "µg/mL"
  MIC90: 8

* * *

- Tested on: Escherichia coli
- protocol summary: Antibacterial activity against Escherichia coli NCIM 2574 after 24 hrs by NCCLS method
- Format: functional
- settings: NCIM 2574, 24 h
Recorded MIC90 values for a group of compounds are listed next.

- structure as smiles: "CC(=O)O[C@H]1CC[C@@]2(C)[C@@H](CC[C@@H]3[C@@H]2CC[C@@]2(C)[C@H]3CC[C@@H]2[C@@](C)(O)c2nccs2)C1"
  measured on: "Escherichia coli"
  MIC90, µg/mL: 16
- structure as smiles: "C[C@]12CC[C@H](O)C[C@@H]1CC[C@@H]1[C@@H]2CC[C@@]2(C)[C@H]1CC[C@@H]2[C@@](C)(O)c1nccs1"
  measured on: "Escherichia coli"
  MIC90, µg/mL: 16
- structure as smiles: "CC(C)(C)[Si](C)(C)O[C@H]1CC[C@@]2(C)[C@@H](CC[C@@H]3[C@@H]2CC[C@@]2(C)[C@H]3CC[C@@H]2[C@@](C)(O)c2nccs2)C1"
  measured on: "Escherichia coli"
  MIC90, µg/mL: 16
- structure as smiles: "C[C@]12CC[C@H](O)C[C@@H]1CC[C@@H]1[C@@H]2CC[C@@]2(C)[C@H]1CC[C@@H]2[C@@](C)(O)c1ccccn1"
  measured on: "Escherichia coli"
  MIC90, µg/mL: 8
- structure as smiles: "CC(=O)O[C@H]1CC[C@@]2(C)[C@@H](CC[C@@H]3[C@@H]2CC[C@@]2(C)[C@H]3CC[C@@H]2[C@@](C)(O)c2ccccn2)C1"
  measured on: "Escherichia coli"
  MIC90, µg/mL: 8
- structure as smiles: "CC(=O)[C@H]1[C@H](c2ccccn2)C[C@H]2[C@@H]3CC=C4C[C@@H](OS(C)(C)C(C)(C)C)CC[C@]4(C)[C@H]3CC[C@@]21C"
  measured on: "Escherichia coli"
  MIC90, µg/mL: 16
- structure as smiles: "CC(=O)[C@H]1[C@H](c2ccccn2)C[C@H]2[C@@H]3CC=C4C[C@@H](O)CC[C@]4(C)[C@H]3CC[C@@]21C"
  measured on: "Escherichia coli"
  MIC90, µg/mL: 16
- structure as smiles: "C[C@]12CC[C@H]3[C@@H](CC=C4C[C@@H](O)CC[C@@]43C)[C@@H]1CC[C@@H]2[C@@](C)(O)c1ccccn1"
  measured on: "Escherichia coli"
  MIC90, µg/mL: 16
- structure as smiles: "CC(C)(C)[Si](C)(C)O[C@H]1CC[C@@]2(C)[C@@H](CC[C@@H]3[C@@H]2CC[C@@]2(C)[C@H]3CC[C@@H]2[C@@](C)(O)c2ccccn2)C1"
  measured on: "Escherichia coli"
  MIC90, µg/mL: 8
